target: recombinant human MASP2 active protease (amino acids 297-686, C-terminal His Tag) (human, UniProt O00187 297-686); experiment: cell-based or functional assay
Sequence (O00187 other isoform, or with tags, fused parts or gaps limits assumed): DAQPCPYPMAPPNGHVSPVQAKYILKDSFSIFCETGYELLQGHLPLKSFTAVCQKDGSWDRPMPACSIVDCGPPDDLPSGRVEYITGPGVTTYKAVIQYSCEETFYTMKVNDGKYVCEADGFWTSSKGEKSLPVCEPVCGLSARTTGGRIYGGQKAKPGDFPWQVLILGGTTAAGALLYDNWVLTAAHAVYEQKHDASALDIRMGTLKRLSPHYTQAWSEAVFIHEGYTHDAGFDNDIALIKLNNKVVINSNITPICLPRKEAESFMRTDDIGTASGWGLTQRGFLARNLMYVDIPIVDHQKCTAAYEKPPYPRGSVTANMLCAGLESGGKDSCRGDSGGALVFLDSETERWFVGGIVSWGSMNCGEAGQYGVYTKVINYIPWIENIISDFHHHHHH
Numbered stars: 1 amine (or outer) side, 2 acyl side, 3 side chain; on linkers, the order of the positions; unused ones are H or OH. Bridge positions count the residues as written; N and C are the ends. Square brackets hold non-standard residues; d marks the D form. Ends that are not written are not given here. NH(CH2CH2O)4CH2CO = O=C(COCCOCCOCCOCCN[*:1])[*:2]; Oic = O=C(O)[C@@H]1C[C@@H]2CCCC[C@@H]2N1; PEG8 = NCCOCCOCCOCCOCCOCCOCCOCCOCCC(=O)O; tBuAla = CC(C)(C)C[C@H](N)C(=O)O; Cit = NC(=O)NCCC[C@H](N)C(=O)O; Pen = CC(C)(S)[C@H](N)C(=O)O; NMeC = CN[C@@H](CS)C(=O)O; PEG3 = NCCOCCOCCOCCC(=O)O; Sar = CNCC(=O)O
Please respond with reported human MASP2 IC50 for every item in the list.
// unit must come after the numeric part

Quick one: human MASP2 IC50 for [Sar]ICSRSLP[Oic]I[Pen]IPD[PEG3]-NH2 (disulfide 3-11; N-terminus assumed; SMILES CC[C@H](C)[C@H](NC(=O)CNC)C(=O)N[C@H]1CSSC(C)(C)[C@@H](C(=O)N[C@H](C(=O)N2CCC[C@H]2C(=O)N[C@@H](CC(=O)O)C(=O)NCCOCCOCCOCCC(N)=O)[C@@H](C)CC)NC(=O)[C@H]([C@@H](C)CC)NC(=O)[C@@H]2C[C@@H]3CCCC[C@@H]3N2C(=O)[C@@H]2CCCN2C(=O)[C@H](CC(C)C)NC(=O)[C@H](CO)NC(=O)[C@H](CCCNC(=N)N)NC(=O)[C@H](CO)NC1=O) [((N-Me)G)-IC+SRSLP-(Oic)-I-(Pen)+IPD-(PEG2(13 atoms))-NH2] ?
96 nM

Thanks! And AICSRSLP[Oic]I[Pen]I-NH2 (disulfide 3-11; N-terminus assumed; SMILES CC[C@H](C)[C@H](NC(=O)[C@H]1NC(=O)[C@H]([C@@H](C)CC)NC(=O)[C@@H]2C[C@@H]3CCCC[C@@H]3N2C(=O)[C@@H]2CCCN2C(=O)[C@H](CC(C)C)NC(=O)[C@H](CO)NC(=O)[C@H](CCCNC(=N)N)NC(=O)[C@H](CO)NC(=O)[C@@H](NC(=O)[C@@H](NC(=O)[C@H](C)N)[C@@H](C)CC)CSSC1(C)C)C(N)=O) [AIC+SRSLP-(Oic)-I-(Pen)+I-NH2] ?
98 nM

Thanks! And [Sar]ICSRS[tBuAla]PPI[Pen]IP-{PEG8-NH2} (disulfide 3-11) [((N-Me)G)-IC+SRS-((tBu)A)-PPI-(Pen)+IP-(PEG8(28 atoms))-NH2] ?
52 nM

Thanks! And AICSRS[tBuAla]PPICID-OH (disulfide 3-11; N-terminus assumed; SMILES CC[C@H](C)[C@H](NC(=O)[C@H](C)N)C(=O)N[C@H]1CSSC[C@@H](C(=O)N[C@H](C(=O)N[C@@H](CC(=O)O)C(=O)O)[C@@H](C)CC)NC(=O)[C@H]([C@@H](C)CC)NC(=O)[C@@H]2CCCN2C(=O)[C@@H]2CCCN2C(=O)[C@H](CC(C)(C)C)NC(=O)[C@H](CO)NC(=O)[C@H](CCCNC(=N)N)NC(=O)[C@H](CO)NC1=O) [AIC+SRS-((t-Bu)A)-PPIC+ID-OH] ?
83 nM

Thanks! And [Sar]ICSRS[tBuAla]PPI[Pen]IP[NH(CH2CH2O)4CH2CO]-NH2 (disulfide 3-11; N-terminus assumed; SMILES CC[C@H](C)[C@H](NC(=O)CNC)C(=O)N[C@H]1CSSC(C)(C)[C@@H](C(=O)N[C@H](C(=O)N2CCC[C@H]2C(=O)NCCOCCOCCOCCOCC(N)=O)[C@@H](C)CC)NC(=O)[C@H]([C@@H](C)CC)NC(=O)[C@@H]2CCCN2C(=O)[C@@H]2CCCN2C(=O)[C@H](CC(C)(C)C)NC(=O)[C@H](CO)NC(=O)[C@H](CCCNC(=N)N)NC(=O)[C@H](CO)NC1=O) [((N-Me)G)-IC+SRS-((tBu)A)-PPI-(Pen)+IP-(PEG4-CH2CO2H (15 atoms))-NH2] ?
30 nM

Thanks! And SICSRS[tBuAla]PPI[NMeC]I-NH2 (disulfide 3-11; N-terminus assumed; SMILES CC[C@H](C)[C@H](NC(=O)[C@@H]1CSSC[C@H](NC(=O)[C@@H](NC(=O)[C@@H](N)CO)[C@@H](C)CC)C(=O)N[C@@H](CO)C(=O)N[C@@H](CCCNC(=N)N)C(=O)N[C@@H](CO)C(=O)N[C@@H](CC(C)(C)C)C(=O)N2CCC[C@H]2C(=O)N2CCC[C@H]2C(=O)N[C@@H]([C@@H](C)CC)C(=O)N1C)C(N)=O) [SIC+SRS-((tBu)A)-PPI-((N-Me)C)+I-NH2] ?
230 nM

Thanks! And AICSRSLP[Oic]I[Pen]IPE-NH2 (disulfide 3-11; N-terminus assumed; SMILES CC[C@H](C)[C@H](NC(=O)[C@H](C)N)C(=O)N[C@H]1CSSC(C)(C)[C@@H](C(=O)N[C@H](C(=O)N2CCC[C@H]2C(=O)N[C@@H](CCC(=O)O)C(N)=O)[C@@H](C)CC)NC(=O)[C@H]([C@@H](C)CC)NC(=O)[C@@H]2C[C@@H]3CCCC[C@@H]3N2C(=O)[C@@H]2CCCN2C(=O)[C@H](CC(C)C)NC(=O)[C@H](CO)NC(=O)[C@H](CCCNC(=N)N)NC(=O)[C@H](CO)NC1=O) [AIC+SRSLP-(Oic)-I-(Pen)+IPE-NH2] ?
150 nM

Thanks! And [Cit]ICSRS[tBuAla]PPI[Pen]IPD-OH (disulfide 3-11; N-terminus assumed; SMILES CC[C@H](C)[C@H](NC(=O)[C@@H](N)CCCNC(N)=O)C(=O)N[C@H]1CSSC(C)(C)[C@@H](C(=O)N[C@H](C(=O)N2CCC[C@H]2C(=O)N[C@@H](CC(=O)O)C(=O)O)[C@@H](C)CC)NC(=O)[C@H]([C@@H](C)CC)NC(=O)[C@@H]2CCCN2C(=O)[C@@H]2CCCN2C(=O)[C@H](CC(C)(C)C)NC(=O)[C@H](CO)NC(=O)[C@H](CCCNC(=N)N)NC(=O)[C@H](CO)NC1=O) [(Cit)-IC+SRS-((tBu)A)-PPI-(Pen)+IPD-OH] ?
65 nM
